test system: SK-BR-3; conditions: 72 h
property.name: EC50, CellTiter-Glo (nM)

Some molecules with recorded EC50, CellTiter-Glo:
Entry C=CCn1c(=O)c2cnc(Nc3ccc(N4CCN(C)CC4)cc3)nc2n1-c1cccc(C(C)(C)O)n1 [MK1775] under SK-BR-3 had EC50, CellTiter-Glo of 203

Entry CCN(CC)CCCC(C)Nc1ccnc2cc(Cl)ccc12 (stereo not given) [Chloroquine] under SK-BR-3 had EC50, CellTiter-Glo of 4910

1. CC1(COc2ccc3c(c2)ncn3-c2ccc3cccc(N4CCC(N)CC4)c3n2)COC1 [Crenolanib]
2. CC(=O)[C@]1(O)Cc2c(O)c3c(c(O)c2[C@@H](O[C@H]2C[C@H](N)[C@H](O)[C@H](C)O2)C1)C(=O)c1ccccc1C3=O [Idarubicin]
3. CCNC(=O)c1noc(-c2cc(C(C)C)c(O)cc2O)c1-c1ccc(CN2CCOCC2)cc1 [NVP-AUY922]
**Q:** Hello, I need these entries ordered by EC50, CellTiter-Glo, highest reading first. Thanks! Answer with the labels in sequence, matching the requested order.
**A:** 1, 2, 3
